Tested on: Staphylococcus aureus, MRSA (ATCC 33591)
Experiment: Antibacterial MIC assay (microbroth dilution, CLSI)
Type: cell-based
Details: microbroth dilution, cation-adjusted Mueller-Hinton broth, 35° C. for 16-20 hours, read-out: MIC Staphylococcus aureus, MRSA (ATCC 33591)
From the text: All MIC testing of bacteria followed the Clinical and Laboratory Standards Institute (CLSI) guidelines for antimicrobial testing of aerobic bacteria (Methods for Dilution Antimicrobial Susceptibility Tests for Bacteria that Grow Aerobically; Approved Standard—Tenth Edition, M07-A10; Performance Standards for Antimicrobial Susceptibility Testing; Twenty-fifth Informational Supplement, M100-S25). […]
assay_readout: MIC

compound | target_system | assay_readout | value_measured
C=C[C@]1(C)C[C@@H](OC(=O)COc2ccc3c(c2)B(O)OC3CN(C)C)[C@]2(C)[C@H](C)CC[C@]3(CCC(=O)[C@H]32)[C@@H](C)[C@@H]1O (stereo partly shown) | Staphylococcus aureus, MRSA (ATCC 33591) | MIC | < 0.25 µg/mL
C=C[C@]1(C)C[C@@H](OC(=O)COc2cc(CN)c3c(c2)B(O)OC3)[C@]2(C)[C@H](C)CC[C@]3(CCC(=O)[C@H]32)[C@@H](C)[C@@H]1O.Cl | Staphylococcus aureus, MRSA (ATCC 33591) | MIC | < 0.25 µg/mL
C=C[C@]1(C)C[C@@H](OC(=O)COc2cc(CN(C)C)c3c(c2)B(O)OC3)[C@]2(C)[C@H](C)CC[C@]3(CCC(=O)[C@H]32)[C@@H](C)[C@@H]1O.Cl | Staphylococcus aureus, MRSA (ATCC 33591) | MIC | < 0.25 µg/mL
C=C[C@]1(C)C[C@@H](OC(=O)COc2ccc3c(c2)B(O)OC3CC(=O)O)[C@]2(C)[C@H](C)CC[C@]3(CCC(=O)[C@H]32)[C@@H](C)[C@@H]1O (stereo partly shown) | Staphylococcus aureus, MRSA (ATCC 33591) | MIC | 0.5 to 2 µg/mL
C=C[C@]1(C)C[C@@H](OC(=O)COc2ccc3c(c2)B(O)N(C(=O)OC)N=C3)[C@]2(C)[C@H](C)CC[C@]3(C[C@H](F)C(=O)[C@H]32)[C@@H](C)[C@@H]1O | Staphylococcus aureus, MRSA (ATCC 33591) | MIC | < 0.25 µg/mL

Task: Recorded MIC for C=C[C@]1(C)C[C@@H](OC(=O)COc2cc3c(cc2F)COB3O)[C@]2(C)[C@H](C)CC[C@]3(C[C@H](F)C(=O)[C@H]32)[C@@H](C)[C@@H]1O with Staphylococcus aureus, MRSA (ATCC 33591), please?
Output: < 0.25 µg/mL

Task: Note, next up: C=C[C@]1(C)C[C@@H](OC(=O)COc2cc3c(cn2)COB3O)[C@]2(C)[C@H](C)CC[C@]3(CCC(=O)[C@H]32)[C@@H](C)[C@@H]1O
Output: > 64 µg/mL

Task: Note, next up: C=C[C@]1(C)C[C@@H](OC(=O)COc2ccc3c(c2)B(O)N(C(C)=O)N=C3)[C@]2(C)[C@H](C)CC[C@]3(C[C@H](F)C(=O)[C@H]32)[C@@H](C)[C@@H]1O
Output: < 0.25 µg/mL

Task: Note, next up: C=C[C@]1(C)C[C@@H](OC(=O)COc2ccc(C3=CCOB3O)cc2)[C@]2(C)[C@H](C)CC[C@]3(CCC(=O)[C@H]32)[C@@H](C)[C@@H]1O
Output: < 0.25 µg/mL

Task: Note, next up: C=C[C@]1(C)C[C@@H](OC(=O)COc2ccc3c(c2)B(O)ON=C3)[C@]2(C)[C@H](C)CC[C@]3(C[C@H](F)C(=O)[C@H]32)[C@@H](C)[C@@H]1O
Output: 0.5 to 2 µg/mL
